target: HLA-B*5101 (human); experiment: competition vs 125I-labeled standard peptide, purified HLA; conditions: remark: other sources report otherwise
METRIC NAME: IC50 (nM)
The answer is to be given in nM; state only the numeric part.

Task item: Query (binder): KPYDGIPI [Her2/neu.921.I8] ; field requested: IC50
Reply: 74

These data points were gathered from patent US20040018971A1.
